Test system: BT-474
Assay: cells
Type: functional, cell-based
Details: Homo sapiens, BT-474, 72 h
Description: Cytotoxicity against human BT474 cells expressing HER2 after 72 hrs by MTT assay
pIC50: −log10 of the molar value.
Catalogue of pIC50 readings, one per entry.

C#Cc1cccc(Nc2ncnc3cc4c(cc23)N(C(=O)/C=C/CN2CCN(C)CC2)CCO4)c1 : 5.88
C#Cc1cccc(Nc2ncnc3cc4c(cc23)N(C(=O)/C=C/CN2CCCCC2)CCCO4)c1 : < 5.00
C#Cc1cccc(Nc2ncnc3cc4c(cc23)N(C(=O)/C=C/CN2CCN(C)CC2)CCCO4)c1 : < 5.00
C#Cc1cccc(Nc2ncnc3cc4c(cc23)N(C(=O)/C=C/CN2CCCC2)CCCO4)c1 : < 5.00

q: Fill in the blank: the reported pIC50 of C#Cc1cccc(Nc2ncnc3cc4c(cc23)N(C(=O)/C=C/CN2CCC(C)CC2)CCO4)c1 is ____.
a: 5.86

q: I'd like to know its pIC50. The compound in question is C#Cc1cccc(Nc2ncnc3cc4c(cc23)N(C(=O)/C=C/CN2CCOCC2)CCCO4)c1
a: < 5.00

q: Given the compound C#Cc1cccc(Nc2ncnc3cc4c(cc23)N(C(=O)/C=C/CN2CCCCC2C)CCCO4)c1 (configuration not stated) , what is its reported pIC50?
a: < 5.00

# credit: ChEMBL document CHEMBL3112407
